molecular target: protein encoded by the human liver EST cDNA (Homo sapiens); construct: made in house; host or cells: COS-1 (ATCC CRL-1650) cells transiently transfected with EST-p91023(B); 100,000 x g supernatant used; test: ST enzymatic activity after transfection of COS-1 cells with human liver EST cDNA in p91023(B); format: biochemical; settings: average of two experiments; HSS of transfected COS-1 cells
endpoint_label: ST enzymatic activity, EST cDNA, Average (units/mg protein)
Unit units/mg protein implied. Number only.

Previously resolved entries follow.
C[C@]12CC[C@H](O)CC1=CC[C@@H]1[C@@H]2CC[C@]2(C)C(=O)CC[C@@H]12 [DHEA, dehydroepiandrosterone] : 2.3
O=[N+]([O-])c1ccc(O)cc1 : 5.2
NCCc1ccc(O)c(O)c1 : 0.0

Now examine the next entry.
Lookup: // lookup ST enzymatic activity, EST cDNA, Average for C[C@]12CC[C@@H]3c4ccc(O)cc4CC[C@H]3[C@@H]1CCC2=O
Found: 8.8

###

biological target: protein encoded by the human liver EST cDNA (Homo sapiens, UniProt P49888); construct: made in house; host or cells: COS-1 (ATCC CRL-1650) cells transiently transfected with EST-p91023(B); 100,000 x g supernatant used; test: ST enzymatic activity after transfection of COS-1 cells with human liver EST cDNA in p91023(B); format: biochemical; conditions: first EST cDNA column; HSS of transfected COS-1 cells; estrone 0.05 μM, DHEA 5 μM, 4-nitrophenol 4 μM, dopamine 60 μM; 1 unit = 1 nmol sulfated product per hour at 37° C.
Sequence (P49888 whole entry): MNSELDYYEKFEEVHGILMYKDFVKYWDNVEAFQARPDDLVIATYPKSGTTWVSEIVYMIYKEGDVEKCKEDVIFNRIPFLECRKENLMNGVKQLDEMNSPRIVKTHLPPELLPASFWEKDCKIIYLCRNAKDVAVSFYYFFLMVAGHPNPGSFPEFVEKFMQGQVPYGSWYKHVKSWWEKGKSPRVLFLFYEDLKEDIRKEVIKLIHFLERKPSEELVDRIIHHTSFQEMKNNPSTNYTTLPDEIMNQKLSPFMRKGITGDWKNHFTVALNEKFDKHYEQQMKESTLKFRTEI
endpoint_label: ST enzymatic activity, EST cDNA, Expt. 1 (units/mg protein)
Unit units/mg protein implied. Number only.

NCCc1ccc(O)c(O)c1 : 0.0
C[C@]12CC[C@H](O)CC1=CC[C@@H]1[C@@H]2CC[C@]2(C)C(=O)CC[C@@H]12 [DHEA, dehydroepiandrosterone] : 1.3
C[C@]12CC[C@@H]3c4ccc(O)cc4CC[C@H]3[C@@H]1CCC2=O : 6.0

Now examine the next entry.
Lookup: // lookup ST enzymatic activity, EST cDNA, Expt. 1 for O=[N+]([O-])c1ccc(O)cc1
Found: 3.4

###

# Lookup of reported ST enzymatic activity, EST cDNA, Expt. 1 keyed by entry
molecular target: protein encoded by the human liver EST cDNA (Homo sapiens); construct: made in house; host or cells: COS-1 (ATCC CRL-1650) cells transiently transfected with EST-p91023(B); 100,000 x g supernatant used; test: ST enzymatic activity after transfection of COS-1 cells with human liver EST cDNA in p91023(B); assay type: biochemical; settings: second EST cDNA column; HSS of transfected COS-1 cells; same substrate concentrations
State the value, then name its unit.

O=[N+]([O-])c1ccc(O)cc1 : 6.9 units/mg protein
C[C@]12CC[C@@H]3c4ccc(O)cc4CC[C@H]3[C@@H]1CCC2=O : 11.5 units/mg protein
NCCc1ccc(O)c(O)c1 : 0.0 units/mg protein

Now examine the next entry.
Lookup: # query: ST enzymatic activity, EST cDNA, Expt. 1 | item C[C@]12CC[C@H](O)CC1=CC[C@@H]1[C@@H]2CC[C@]2(C)C(=O)CC[C@@H]12 [DHEA, dehydroepiandrosterone] | system: protein encoded by the human liver EST cDNA (Homo sapiens)
Found: 3.3 units/mg protein

###

target: protein encoded by the human liver EST cDNA (Homo sapiens, UniProt P49888); construct: made in house; host or cells: COS-1 (ATCC CRL-1650) cells transiently transfected with EST-p91023(B); 100,000 x g supernatant used; experiment: ST enzymatic activity after transfection of COS-1 cells with human liver EST cDNA in p91023(B); type: biochemical; details: approximate values; transfected COS-1 cells
endpoint_label: sulfation catalyzed by the protein encoded by the human liver EST cDNA

O=[N+]([O-])c1ccc(O)cc1 : ~ 5 units/mg protein
C[C@]12CC[C@H](O)CC1=CC[C@@H]1[C@@H]2CC[C@]2(C)C(=O)CC[C@@H]12 [DHEA, dehydroepiandrosterone] : ~ 2 units/mg protein
NCCc1ccc(O)c(O)c1 : not
C[C@]12CC[C@@H]3c4ccc(O)cc4CC[C@H]3[C@@H]1CCC2=O : ~ 9 units/mg protein
